Molecular target: FRMPD3, Q5JV73
Sequence (Q5JV73 12-100): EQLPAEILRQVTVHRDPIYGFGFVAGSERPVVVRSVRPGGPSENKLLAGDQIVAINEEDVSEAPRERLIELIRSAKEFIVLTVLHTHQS
Assay: holdup assay
Parameters: key: below the threshold = too weak to quantify, mostly under pKd 3.1 to 4
Conditions: plain residues with an end cap or a label only (N-terminal biotin on a linker: ttds)
MEASUREMENT TYPE: pKd

Here is how some binders turned out for pKd.
BINDER: STLTIFETAL [ABCC4, O15439]
MEASUREMENT TYPE: pKd
REPORTED MEASUREMENT: 3.6

BINDER: QSARYRDTEL [TJP2, Q9UDY2]
MEASUREMENT TYPE: pKd
REPORTED MEASUREMENT: below the threshold

BINDER: IDNDTESTAL [ARHGAP17, Q68EM7]
MEASUREMENT TYPE: pKd
REPORTED MEASUREMENT: below the threshold

BINDER: SRPQRTQTQV [HPV67-E6, A4U7F2]
MEASUREMENT TYPE: pKd
REPORTED MEASUREMENT: below the threshold

BINDER: SVWLRKETRV [CYSLTR2, Q9NS75]
MEASUREMENT TYPE: pKd
REPORTED MEASUREMENT: below the threshold

Kindly review the next binder as well.
Query: Fill in the blank: the reported pKd of SSRTRRETQL [HPV16-E6, P03126] is ____.
Response: below the threshold
